src = patent US20250136677A1

# Target System: T1, wildtype feline IL-31 protein (Feline_IL31_wildtype) (feline)
# T1 construct: Full length feline IL-31 with C-terminal His tag, secreted from ExpiCHO cells; also called fIL-31
# T1 chain: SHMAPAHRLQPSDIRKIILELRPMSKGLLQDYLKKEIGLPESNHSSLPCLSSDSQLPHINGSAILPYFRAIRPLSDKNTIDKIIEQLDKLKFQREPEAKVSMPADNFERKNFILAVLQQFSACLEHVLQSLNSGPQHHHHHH
# Measurement Description: SPR (Biacore), IL-31 on chip, 1:1 fit
Measured Attribute: log10(koff) (log10 of the value in s⁻¹)
Note: values are log10 of koff expressed in s⁻¹.

Sample answers from the record:
Feline 15H05 1.1 K42N_V43I (antibody, V domains shown) VH: QVLLVQSGAEVRTPGASVKIFCKASGYSFTSYTIHWLRQAPAQGLEWMGNINPTSGYTENNQRFKDRLTLTADTSTNTAYMELSSLRSADTAMYYCARWGFKYDGEWSFDVWGAGTTVTVSS VL: EIQMTQSPSSLSASPGDRVTITCRASQGISIWLSWYQQKPGNIPKLLIYKASNLHIGVPSRFSGSGSGTDFTLTISSLEPEDAATYYCLQSQTYPLTFGGGTKLEIK ... -2.66
mouse anti IL-31 antibody 11E12 (antibody, V domains shown, Mouse monoclonal comparison antibody; also called MU-11E12; mouse 11E12) VH: QVQLQQSGAELVKPGASVKLSCKASGYTFKYYDINWVRQRPEQGLEWIGWIFPGDGGTKYNETFKGKATLTTDKSSSTAYMQLSRLTSEDSAVYFCARGGTSVIRDAMDYWGQGTSVTVSS VL: DIVLTQSPASLAVSLGQRATISCRASESVDNYGISFMHWYQQKPGQPPKLLIYRASNLESGIPARFSGSGSRTDFTLTINPVETDDVATYYCQQSNKDPLTFGAGTKLELK ... -3.91
Feline 15H05 1.2 (antibody, V domains shown, Feline heavy and kappa constant regions) VH: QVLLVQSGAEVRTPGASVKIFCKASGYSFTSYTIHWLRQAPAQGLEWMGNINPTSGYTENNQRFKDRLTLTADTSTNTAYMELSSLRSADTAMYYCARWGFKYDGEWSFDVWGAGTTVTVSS VL: EITMTQSPGSLAGSPGQQVTMNCRASQGISIWLSWYQQKPGQHPKLLIYKASNLHIGVPDRFSGSGSGTDFTLTISNLQAEDVASYYCLQSQTYPLTFGGGTKLEIK ... -2.83

// query Record request: log10(koff) value, item Feline_11E12 1.1_K46Q (antibody, V domains shown, felinized 11E12 with the single VL substitution K46Q; copies: 2 + 2) VH: QVLLVQSGAEVKKPGASVKIFCKASGYSFTYYDINWLRQAPEQGLEWMGWIFPGDGGTKYNETFKGRLTLTADTSTNTVYMELSSLRSADTAMYYCARGGTSVIRDAMDYWGQGALVTVSS VL: EIQMTQSPSSLSASPGDRVTITCRASESVDNYGISFMHWYQQKPGQVPKLLIYRASNLESGVPSRFSGSGSGTDFTLTISSLEPEDAATYYCQQSNKDPLTFGQGTKLEIK
// result -3.84

// query And what about the binder Feline 15H05 1.1 FW1_3 (antibody, V domains shown, Printed as 'Feline 15H05 1.1 FW13') VH: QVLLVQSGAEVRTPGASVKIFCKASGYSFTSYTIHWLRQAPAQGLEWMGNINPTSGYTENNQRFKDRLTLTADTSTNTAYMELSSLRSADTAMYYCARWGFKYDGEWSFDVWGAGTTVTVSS VL: DIQMNQSPSSLSASLGDTITVTCRASQGISIWLSWYQQKPGKVPKLLIYKASNLHIGVPPRFSGSGSGTHFTLTITSLQPEDIATYYCLQSQTYPLTFGGGTKLEIK ?
// result -4.52

// query And what about the binder Feline 15H05 3.1 (antibody, V domains shown, Feline heavy and kappa constant regions) VH: QVLLVQSGAEVRKPGASVKIFCKASGYSFTSYTIHWLRQAPEQGLEWMGNINPTSGYTENNQRFKDRLTLTADTSTNTAYMELSSLRSADTAMYYCARWGFKYDGEWSFDVWGAGTTVTVSS VL: EIQMTQSPSSLSASPGDRVTITCRASQGISIWLSWYQQKPGKVPKLLIYKASNLHIGVPSRFSGSGSGTDFTLTISSLEPEDAATYYCLQSQTYPLTFGGGTKLEIK ?
// result -2.78
